# measurement target: Bromodomain-containing protein 4 [75-147] (Homo sapiens, UniProt O60885)
# Construct: 75-147
# protocol details: In Vitro Enzymatic Activity Assay
observable: IC50 (nM)
Report the figure in nM without appending any unit label.

Given the entry Cn1cc(-c2nc(CS(C)(=O)=O)ccc2Oc2ccc(F)cc2F)c2cc[nH]c2c1=O [US20240101551, Compound of Formula I] , report its measured IC50. 0.64
